observation-type: melting point

>>> observed("CCNC(=S)Nc1cnc2ccc(Nc3ccc(Cl)cc3)nc2n1")
"185 °C"
>>> observed("COc1cc(Nc2cnc3ccc(NC(=S)NCC4CCCCC4)nc3n2)cc(OC)c1OC")
"347 °C"
>>> observed("CCNC(=O)Nc1cnc2ccc(-c3cccc(N)c3)nc2n1")
"> 320 °C"
>>> observed("CCNC(=O)Nc1ccc2ncc(-c3ccc([N+](=O)[O-])cc3)nc2n1")
"> 350 °C"
>>> observed("COc1cc(Nc2cnc3ccc(NC(=S)NCc4ccc(F)cc4)nc3n2)cc(OC)c1OC")
"255 °C"
>>> observed("CCNC(=O)Nc1ccc2ncc(-c3ccc(NC(=O)OCCOC)c(OC)c3)nc2n1")
"> 240 °C"
>>> observed("Cc1cc(-c2ccc3ncc(NC(=O)Nc4ccc(N(C)C)cc4)nc3n2)cc(C)c1O")
"273 to 275 °C"
>>> observed("CCNC(=O)Nc1cnc2ccc(Cl)nc2n1")
"240 °C"
>>> observed("COc1cc(-c2ccc3ncc(NC(=O)NCCCc4ccccc4)nc3n2)ccc1O")
"233 to 236 °C"
>>> observed("CCNC(=O)Nc1ccc2ncc(-c3cc(F)ccc3OC)nc2n1")
"253 to 258 °C"
>>> observed("COc1cc(-c2ccc3ncc(NC(=O)NC4CCCCCCC4)nc3n2)ccc1O")
"232 to 234 °C"
>>> observed("CCNC(=O)Nc1ccc2ncc(-c3ccc(F)cc3OCC)nc2n1")
"229 to 231 °C"
>>> observed("COc1cc(Nc2cnc3ccc(NC(=S)NC4CCCCC4)nc3n2)cc(OC)c1OC")
"248 °C"
>>> observed("CCNC(=S)Nc1cnc2ccc(-c3cc(OC)c(OC)c(OC)c3)nc2n1")
"218 to 219 °C"
>>> observed("CCNC(=S)Nc1ccc2ncc(Nc3ccccc3)nc2n1")
"285 °C"
>>> observed("CCNC(=S)Nc1ccc2ncc(Nc3ccc(OC)c(Cl)c3)nc2n1")
"276 °C"
>>> observed("CCNC(=O)Nc1ccc2ncc(-c3ccc(C)c(F)c3)nc2n1")
"247.8 to 252.4 °C"
>>> observed("O=C(Nc1cnc2ccc(-c3cc(Cl)c(O)c(Cl)c3)nc2n1)Nc1ccccc1[N+](=O)[O-]")
"> 300 °C"
